biological target: Hck (Homo sapiens (Human)); experiment: KinaseProfiler off-target kinase profiling; assay type: biochemical; conditions: 10 μM, ATP near Km
assay.readout: Avg. POC (POC)

• Cc1c(-c2ccc(=O)n(C)c2)nn(-c2ccccc2)c1NC(=O)NC1CN(CC(F)(F)F)Cc2ccccc21 (stereo not shown) [Example 26] = 91.5
• Cc1c(-c2cnn(C)c2)nn(-c2ccccc2)c1NC(=O)NC1CCOc2cc(F)ccc21 (stereo not shown) [Example 12] = 103.5
• COCc1ccc2c(c1)C(NC(=O)Nc1c(C)c(-c3cnn(C)c3)nn1-c1ccccc1)COC2 (stereo not shown) [Example 32] = 98
• Cc1c(-c2cnn(C)c2)nn(-c2ccccc2)c1NC(=O)N[C@H]1CCCc2ccccc21 [Example 2] = 85.5

###

biological target: PhKgamma2 (Homo sapiens (Human)); assay: KinaseProfiler off-target kinase profiling; format: biochemical; settings: 10 μM, ATP near Km
Sequence (P15735 whole entry): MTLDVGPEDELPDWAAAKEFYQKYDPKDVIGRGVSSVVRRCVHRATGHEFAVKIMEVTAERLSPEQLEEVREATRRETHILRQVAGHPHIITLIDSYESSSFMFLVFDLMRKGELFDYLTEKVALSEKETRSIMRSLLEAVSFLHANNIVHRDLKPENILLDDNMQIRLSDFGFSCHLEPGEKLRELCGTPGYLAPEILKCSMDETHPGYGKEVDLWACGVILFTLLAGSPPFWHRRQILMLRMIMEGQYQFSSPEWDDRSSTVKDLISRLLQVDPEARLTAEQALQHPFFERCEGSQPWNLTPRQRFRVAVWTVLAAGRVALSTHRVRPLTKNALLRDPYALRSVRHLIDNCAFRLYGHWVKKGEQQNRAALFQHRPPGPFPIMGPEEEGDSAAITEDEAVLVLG
assay.readout: Avg. POC (POC)

* Cc1c(-c2cnn(C)c2)nn(-c2ccccc2)c1NC(=O)NC1CCOc2cc(F)ccc21 (stereo not shown) | 110
* COCc1ccc2c(c1)C(NC(=O)Nc1c(C)c(-c3cnn(C)c3)nn1-c1ccccc1)COC2 (stereo not shown) | 102.5
* Cc1c(-c2cnn(C)c2)nn(-c2ccccc2)c1NC(=O)N[C@H]1CCCc2ccccc21 | 113
* Cc1c(-c2ccc(=O)n(C)c2)nn(-c2ccccc2)c1NC(=O)NC1CN(CC(F)(F)F)Cc2ccccc21 (stereo not shown) | 108.5

###

biological target: AKT1 (Homo sapiens (Human), UniProt P31749); assay: KinaseProfiler off-target kinase profiling; format: biochemical; conditions: 10 μM, ATP near Km
Sequence (P31749 whole entry): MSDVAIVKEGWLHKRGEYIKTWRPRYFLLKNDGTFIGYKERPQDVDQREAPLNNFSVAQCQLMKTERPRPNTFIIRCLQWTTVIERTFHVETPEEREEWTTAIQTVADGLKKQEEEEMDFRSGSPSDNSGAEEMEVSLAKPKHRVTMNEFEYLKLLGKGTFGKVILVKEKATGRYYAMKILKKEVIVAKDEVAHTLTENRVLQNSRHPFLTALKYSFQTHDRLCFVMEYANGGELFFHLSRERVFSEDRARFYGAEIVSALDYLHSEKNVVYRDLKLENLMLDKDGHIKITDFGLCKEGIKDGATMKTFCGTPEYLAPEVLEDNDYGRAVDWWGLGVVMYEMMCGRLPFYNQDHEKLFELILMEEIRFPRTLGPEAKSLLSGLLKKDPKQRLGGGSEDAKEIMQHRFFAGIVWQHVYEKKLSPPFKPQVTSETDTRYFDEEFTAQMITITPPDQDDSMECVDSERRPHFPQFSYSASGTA
assay.readout: Avg. POC (POC)

- Cc1c(-c2ccc(=O)n(C)c2)nn(-c2ccccc2)c1NC(=O)NC1CN(CC(F)(F)F)Cc2ccccc21 (stereo not shown): 100
- Cc1c(-c2cnn(C)c2)nn(-c2ccccc2)c1NC(=O)N[C@H]1CCCc2ccccc21: 130.5
- Cc1c(-c2cnn(C)c2)nn(-c2ccccc2)c1NC(=O)NC1CCOc2cc(F)ccc21 (stereo not shown): 105.5
- COCc1ccc2c(c1)C(NC(=O)Nc1c(C)c(-c3cnn(C)c3)nn1-c1ccccc1)COC2 (stereo not shown): 92

###

Molecular target: CK1gamma3 (Homo sapiens (Human))
Sequence (Q9Y6M4 whole entry): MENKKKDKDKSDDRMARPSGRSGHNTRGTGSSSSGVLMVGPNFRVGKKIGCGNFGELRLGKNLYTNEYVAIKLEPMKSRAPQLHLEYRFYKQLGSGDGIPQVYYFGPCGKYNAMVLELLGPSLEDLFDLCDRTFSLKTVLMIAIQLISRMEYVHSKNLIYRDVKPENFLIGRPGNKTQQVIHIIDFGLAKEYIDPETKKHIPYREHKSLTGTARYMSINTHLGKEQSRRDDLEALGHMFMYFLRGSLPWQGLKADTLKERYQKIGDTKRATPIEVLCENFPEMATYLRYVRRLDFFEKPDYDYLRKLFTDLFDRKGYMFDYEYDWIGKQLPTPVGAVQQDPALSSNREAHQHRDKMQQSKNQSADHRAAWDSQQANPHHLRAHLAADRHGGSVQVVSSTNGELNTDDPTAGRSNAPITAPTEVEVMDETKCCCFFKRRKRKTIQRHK
Test: KinaseProfiler off-target kinase profiling
Type: biochemical
Settings: 10 μM, ATP near Km
Method: Representative compounds (Examples 12, 32, 26 and 2) of the invention were tested for off-target kinase activity at a concentration of 10 μM by Millipore, Inc. in their KinaseProfiler™ service against all the kinases available in their full kinase panel. Compounds were run in duplicate at a concentration of ATP near the Km for each individual kinase according to Millipore's specifications. […]
assay.readout: Avg. POC (POC)

• Cc1c(-c2cnn(C)c2)nn(-c2ccccc2)c1NC(=O)NC1CCOc2cc(F)ccc21 (stereo not shown) = 104.5
• Cc1c(-c2ccc(=O)n(C)c2)nn(-c2ccccc2)c1NC(=O)NC1CN(CC(F)(F)F)Cc2ccccc21 (stereo not shown) = 102.5
• COCc1ccc2c(c1)C(NC(=O)Nc1c(C)c(-c3cnn(C)c3)nn1-c1ccccc1)COC2 (stereo not shown) = 102
• Cc1c(-c2cnn(C)c2)nn(-c2ccccc2)c1NC(=O)N[C@H]1CCCc2ccccc21 = 118

###

target: CDK5/p25 (Homo sapiens (Human), UniProt Q00535); assay: KinaseProfiler off-target kinase profiling; assay type: biochemical; settings: 10 μM, ATP near Km
Sequence (Q00535 whole entry): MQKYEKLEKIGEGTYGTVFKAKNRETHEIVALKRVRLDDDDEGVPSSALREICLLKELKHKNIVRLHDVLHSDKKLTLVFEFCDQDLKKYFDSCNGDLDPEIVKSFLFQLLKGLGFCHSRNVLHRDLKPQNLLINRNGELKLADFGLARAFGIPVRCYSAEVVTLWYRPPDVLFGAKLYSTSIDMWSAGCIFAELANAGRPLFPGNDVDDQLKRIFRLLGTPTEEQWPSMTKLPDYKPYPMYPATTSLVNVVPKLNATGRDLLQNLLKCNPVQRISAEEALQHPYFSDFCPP
Sequence (Q15078 99-307 partner): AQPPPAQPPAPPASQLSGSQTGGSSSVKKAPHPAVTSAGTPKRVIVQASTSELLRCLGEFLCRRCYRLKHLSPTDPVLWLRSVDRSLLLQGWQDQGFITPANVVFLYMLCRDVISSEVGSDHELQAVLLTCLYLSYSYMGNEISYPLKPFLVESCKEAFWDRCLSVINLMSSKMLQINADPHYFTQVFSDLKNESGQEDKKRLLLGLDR
assay.readout: Avg. POC (POC)

• COCc1ccc2c(c1)C(NC(=O)Nc1c(C)c(-c3cnn(C)c3)nn1-c1ccccc1)COC2 (stereo not shown) = 106
• Cc1c(-c2cnn(C)c2)nn(-c2ccccc2)c1NC(=O)NC1CCOc2cc(F)ccc21 (stereo not shown) = 104
• Cc1c(-c2cnn(C)c2)nn(-c2ccccc2)c1NC(=O)N[C@H]1CCCc2ccccc21 = 107.5
• Cc1c(-c2ccc(=O)n(C)c2)nn(-c2ccccc2)c1NC(=O)NC1CN(CC(F)(F)F)Cc2ccccc21 (stereo not shown) = 109

###

target: MARK1 (Homo sapiens (Human)); experiment: KinaseProfiler off-target kinase profiling; assay type: biochemical; conditions: 10 μM, ATP near Km
Sequence (Q9P0L2 whole entry): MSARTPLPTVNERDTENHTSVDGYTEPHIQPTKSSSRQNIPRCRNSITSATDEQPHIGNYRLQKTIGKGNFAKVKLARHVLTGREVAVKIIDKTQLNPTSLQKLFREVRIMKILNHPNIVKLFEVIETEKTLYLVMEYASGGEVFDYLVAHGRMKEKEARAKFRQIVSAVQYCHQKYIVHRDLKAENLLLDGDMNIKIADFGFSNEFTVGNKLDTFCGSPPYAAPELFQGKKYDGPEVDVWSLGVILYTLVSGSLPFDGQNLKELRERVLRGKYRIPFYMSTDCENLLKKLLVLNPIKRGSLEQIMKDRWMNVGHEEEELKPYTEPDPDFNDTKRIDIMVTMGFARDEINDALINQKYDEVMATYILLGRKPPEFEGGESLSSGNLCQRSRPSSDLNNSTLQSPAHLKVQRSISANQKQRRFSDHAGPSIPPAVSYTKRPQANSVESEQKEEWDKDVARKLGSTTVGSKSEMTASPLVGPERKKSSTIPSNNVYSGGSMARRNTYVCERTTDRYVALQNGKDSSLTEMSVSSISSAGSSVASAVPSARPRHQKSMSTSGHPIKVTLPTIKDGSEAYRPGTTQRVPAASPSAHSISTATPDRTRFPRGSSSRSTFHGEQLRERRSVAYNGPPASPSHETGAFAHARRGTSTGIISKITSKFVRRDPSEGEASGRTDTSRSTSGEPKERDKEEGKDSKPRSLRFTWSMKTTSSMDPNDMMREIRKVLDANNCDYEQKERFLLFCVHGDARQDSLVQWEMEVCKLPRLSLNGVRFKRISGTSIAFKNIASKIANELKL
assay.readout: Avg. POC (POC)

- Cc1c(-c2cnn(C)c2)nn(-c2ccccc2)c1NC(=O)N[C@H]1CCCc2ccccc21: 103
- Cc1c(-c2ccc(=O)n(C)c2)nn(-c2ccccc2)c1NC(=O)NC1CN(CC(F)(F)F)Cc2ccccc21 (stereo not shown): 98.5
- Cc1c(-c2cnn(C)c2)nn(-c2ccccc2)c1NC(=O)NC1CCOc2cc(F)ccc21 (stereo not shown): 104
- COCc1ccc2c(c1)C(NC(=O)Nc1c(C)c(-c3cnn(C)c3)nn1-c1ccccc1)COC2 (stereo not shown): 98.5

###

molecular target: Lyn (Homo sapiens (Human)); assay: KinaseProfiler off-target kinase profiling; assay type: biochemical; conditions: 10 μM, ATP near Km
assay.readout: Avg. POC (POC)

• Cc1c(-c2ccc(=O)n(C)c2)nn(-c2ccccc2)c1NC(=O)NC1CN(CC(F)(F)F)Cc2ccccc21 (stereo not shown) [Example 26] = 110.5
• Cc1c(-c2cnn(C)c2)nn(-c2ccccc2)c1NC(=O)NC1CCOc2cc(F)ccc21 (stereo not shown) [Example 12] = 104.5
• COCc1ccc2c(c1)C(NC(=O)Nc1c(C)c(-c3cnn(C)c3)nn1-c1ccccc1)COC2 (stereo not shown) [Example 32] = 106.5
• Cc1c(-c2cnn(C)c2)nn(-c2ccccc2)c1NC(=O)N[C@H]1CCCc2ccccc21 [Example 2] = 115

###

target: BLK_m (Mus musculus (Mouse)); test: KinaseProfiler off-target kinase profiling; assay type: biochemical; conditions: 10 μM, ATP near Km
Sequence (P16277 whole entry): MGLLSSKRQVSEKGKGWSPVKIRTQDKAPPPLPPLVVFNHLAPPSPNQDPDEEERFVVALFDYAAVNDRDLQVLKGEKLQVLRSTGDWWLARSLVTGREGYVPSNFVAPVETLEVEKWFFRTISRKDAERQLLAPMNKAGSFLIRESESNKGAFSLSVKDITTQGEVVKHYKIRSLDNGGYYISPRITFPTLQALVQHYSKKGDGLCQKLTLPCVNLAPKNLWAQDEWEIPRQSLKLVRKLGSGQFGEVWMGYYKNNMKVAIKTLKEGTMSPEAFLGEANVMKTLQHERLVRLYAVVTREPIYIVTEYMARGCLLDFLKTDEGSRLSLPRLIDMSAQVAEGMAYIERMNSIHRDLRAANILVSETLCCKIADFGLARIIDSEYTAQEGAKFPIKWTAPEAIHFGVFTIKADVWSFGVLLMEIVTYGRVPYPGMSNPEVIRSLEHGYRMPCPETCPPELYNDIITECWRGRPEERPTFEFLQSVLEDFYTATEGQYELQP
assay.readout: Avg. POC (POC)

• Cc1c(-c2ccc(=O)n(C)c2)nn(-c2ccccc2)c1NC(=O)NC1CN(CC(F)(F)F)Cc2ccccc21 (stereo not shown) = 103.5
• COCc1ccc2c(c1)C(NC(=O)Nc1c(C)c(-c3cnn(C)c3)nn1-c1ccccc1)COC2 (stereo not shown) = 111
• Cc1c(-c2cnn(C)c2)nn(-c2ccccc2)c1NC(=O)N[C@H]1CCCc2ccccc21 = 126
• Cc1c(-c2cnn(C)c2)nn(-c2ccccc2)c1NC(=O)NC1CCOc2cc(F)ccc21 (stereo not shown) = 112

###

target: IKKalpha (Homo sapiens (Human), UniProt O15111); assay: KinaseProfiler off-target kinase profiling; assay type: biochemical; details: 10 μM, ATP near Km
Sequence (O15111 whole entry): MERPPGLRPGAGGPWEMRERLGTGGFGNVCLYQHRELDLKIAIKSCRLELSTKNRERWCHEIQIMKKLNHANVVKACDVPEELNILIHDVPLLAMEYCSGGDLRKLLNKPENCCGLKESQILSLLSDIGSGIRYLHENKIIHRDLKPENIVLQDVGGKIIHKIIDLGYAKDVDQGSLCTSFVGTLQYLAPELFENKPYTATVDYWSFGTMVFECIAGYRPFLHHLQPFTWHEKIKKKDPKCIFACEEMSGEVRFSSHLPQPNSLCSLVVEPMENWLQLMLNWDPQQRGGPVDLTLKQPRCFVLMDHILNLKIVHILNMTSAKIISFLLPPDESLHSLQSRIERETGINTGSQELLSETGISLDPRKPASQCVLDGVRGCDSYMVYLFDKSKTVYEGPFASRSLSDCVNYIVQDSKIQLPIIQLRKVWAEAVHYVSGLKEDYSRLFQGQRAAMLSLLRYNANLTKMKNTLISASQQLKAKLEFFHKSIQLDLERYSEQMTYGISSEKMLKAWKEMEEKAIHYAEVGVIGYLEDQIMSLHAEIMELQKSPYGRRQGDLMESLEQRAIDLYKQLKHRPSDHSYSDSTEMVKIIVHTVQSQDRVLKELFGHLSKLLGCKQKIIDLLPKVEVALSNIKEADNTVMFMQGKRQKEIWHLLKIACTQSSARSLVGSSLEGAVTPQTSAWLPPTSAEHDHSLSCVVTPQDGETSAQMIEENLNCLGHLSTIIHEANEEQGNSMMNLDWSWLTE
assay.readout: Avg. POC (POC)

- Cc1c(-c2ccc(=O)n(C)c2)nn(-c2ccccc2)c1NC(=O)NC1CN(CC(F)(F)F)Cc2ccccc21 (stereo not shown) [Example 26]: 112.5
- COCc1ccc2c(c1)C(NC(=O)Nc1c(C)c(-c3cnn(C)c3)nn1-c1ccccc1)COC2 (stereo not shown) [Example 32]: 102
- Cc1c(-c2cnn(C)c2)nn(-c2ccccc2)c1NC(=O)N[C@H]1CCCc2ccccc21 [Example 2]: 141.5
- Cc1c(-c2cnn(C)c2)nn(-c2ccccc2)c1NC(=O)NC1CCOc2cc(F)ccc21 (stereo not shown) [Example 12]: 119.5

###

biological target: Ros (Homo sapiens (Human), UniProt P08922); assay: KinaseProfiler off-target kinase profiling; assay type: biochemical; settings: 10 μM, ATP near Km
assay.readout: Avg. POC (POC)

- Cc1c(-c2cnn(C)c2)nn(-c2ccccc2)c1NC(=O)N[C@H]1CCCc2ccccc21: 106.5
- COCc1ccc2c(c1)C(NC(=O)Nc1c(C)c(-c3cnn(C)c3)nn1-c1ccccc1)COC2 (stereo not shown): 97.5
- Cc1c(-c2ccc(=O)n(C)c2)nn(-c2ccccc2)c1NC(=O)NC1CN(CC(F)(F)F)Cc2ccccc21 (stereo not shown): 106.5
- Cc1c(-c2cnn(C)c2)nn(-c2ccccc2)c1NC(=O)NC1CCOc2cc(F)ccc21 (stereo not shown): 97.5

###

molecular target: Abl-P (Homo sapiens (Human), UniProt P00519); assay: KinaseProfiler off-target kinase profiling; type: biochemical; conditions: 10 μM, ATP near Km
Sequence (P00519 27-1130 limits assumed): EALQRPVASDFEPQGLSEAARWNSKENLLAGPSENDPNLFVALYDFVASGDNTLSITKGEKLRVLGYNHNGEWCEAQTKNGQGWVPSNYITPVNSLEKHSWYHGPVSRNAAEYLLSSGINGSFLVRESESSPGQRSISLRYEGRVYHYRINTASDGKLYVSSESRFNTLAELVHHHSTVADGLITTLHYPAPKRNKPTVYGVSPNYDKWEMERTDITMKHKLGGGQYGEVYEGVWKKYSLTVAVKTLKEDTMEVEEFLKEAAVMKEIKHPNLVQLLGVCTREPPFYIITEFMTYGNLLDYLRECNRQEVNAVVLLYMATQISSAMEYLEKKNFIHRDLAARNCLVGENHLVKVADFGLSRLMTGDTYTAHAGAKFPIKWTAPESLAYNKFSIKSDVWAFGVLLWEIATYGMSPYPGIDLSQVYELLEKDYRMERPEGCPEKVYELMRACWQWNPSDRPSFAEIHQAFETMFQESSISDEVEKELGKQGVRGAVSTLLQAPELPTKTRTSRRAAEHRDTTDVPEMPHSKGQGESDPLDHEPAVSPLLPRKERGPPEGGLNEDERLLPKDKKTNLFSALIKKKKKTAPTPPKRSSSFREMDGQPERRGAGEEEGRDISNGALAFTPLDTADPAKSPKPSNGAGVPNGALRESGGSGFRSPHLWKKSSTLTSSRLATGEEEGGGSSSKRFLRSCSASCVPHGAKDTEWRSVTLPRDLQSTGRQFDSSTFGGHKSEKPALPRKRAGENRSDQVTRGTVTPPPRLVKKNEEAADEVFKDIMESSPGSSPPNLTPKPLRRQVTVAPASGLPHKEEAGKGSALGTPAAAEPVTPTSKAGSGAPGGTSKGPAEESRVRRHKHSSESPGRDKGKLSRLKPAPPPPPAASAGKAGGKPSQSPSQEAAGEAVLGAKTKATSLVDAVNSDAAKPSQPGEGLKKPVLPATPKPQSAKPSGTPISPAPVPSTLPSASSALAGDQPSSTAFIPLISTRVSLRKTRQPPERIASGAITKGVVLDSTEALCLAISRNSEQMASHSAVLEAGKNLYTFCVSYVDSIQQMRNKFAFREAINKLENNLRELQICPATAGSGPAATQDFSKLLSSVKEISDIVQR
assay.readout: Avg. POC (POC)

* Cc1c(-c2cnn(C)c2)nn(-c2ccccc2)c1NC(=O)N[C@H]1CCCc2ccccc21 [Example 2] | 146.5
* COCc1ccc2c(c1)C(NC(=O)Nc1c(C)c(-c3cnn(C)c3)nn1-c1ccccc1)COC2 (stereo not shown) [Example 32] | 124.5
* Cc1c(-c2cnn(C)c2)nn(-c2ccccc2)c1NC(=O)NC1CCOc2cc(F)ccc21 (stereo not shown) [Example 12] | 135.5
* Cc1c(-c2ccc(=O)n(C)c2)nn(-c2ccccc2)c1NC(=O)NC1CN(CC(F)(F)F)Cc2ccccc21 (stereo not shown) [Example 26] | 131

###

molecular target: PrKX (Homo sapiens (Human)); experiment: KinaseProfiler off-target kinase profiling; type: biochemical; details: 10 μM, ATP near Km
assay.readout: Avg. POC (POC)

- Cc1c(-c2ccc(=O)n(C)c2)nn(-c2ccccc2)c1NC(=O)NC1CN(CC(F)(F)F)Cc2ccccc21 (stereo not shown): 109
- COCc1ccc2c(c1)C(NC(=O)Nc1c(C)c(-c3cnn(C)c3)nn1-c1ccccc1)COC2 (stereo not shown): 110
- Cc1c(-c2cnn(C)c2)nn(-c2ccccc2)c1NC(=O)NC1CCOc2cc(F)ccc21 (stereo not shown): 118.5
- Cc1c(-c2cnn(C)c2)nn(-c2ccccc2)c1NC(=O)N[C@H]1CCCc2ccccc21: 152
